test system: Saccharomyces cerevisiae; assay: protein stability index of tFT-peptide fusion (C-terminal peptide) (PSI (0-1 scale)); higher = more stable (slower turnover); conditions: genetic background: das1 deletion; temperature: 30 C
Readout kind: protein stability index
Give the value as a plain number.

Observe how each entry below is paired with its result.
# protein stability index of RKDEHIVQNIIN [YGR164W C-terminal 12 aa] = 0.699

# protein stability index of NTTHYNDTLLKQ [PHO3 C-terminal 12 aa] = 0.738

# protein stability index of EKRFPEVMMLEK [FET4 C-terminal 12 aa] = 0.703

# protein stability index of DLSTRIYSLAYE [ELP2 C-terminal 12 aa] = 0.71

# protein stability index of TAESDDDEEDDE [TIF5 C-terminal 12 aa] = 0.688

# protein stability index of YSAVGNFFSRKK [YGR035W-A C-terminal 12 aa] = 0.718

# protein stability index of KNVMRRGQFMKR [GRC3 C-terminal 12 aa] = 0.681

# protein stability index of QGYKPNQSDRYY [PIN2 C-terminal 12 aa] = 0.68

# protein stability index of RKAAERDNMLTT [CTL1 C-terminal 12 aa] = 0.704

# protein stability index of EKKIATRGAFAC [MCO32 C-terminal 12 aa] = 0.707

***
# protein stability index of VQRSASVVERQE [DUS4 C-terminal 12 aa] = 0.697

# protein stability index of IGISPSQNKWEK [REX3 C-terminal 12 aa] = 0.728

# protein stability index of GLRYDMVHKLIS [SLH1 C-terminal 12 aa] = 0.688

# protein stability index of TLQSEINISVKH [ENA5 C-terminal 12 aa] = 0.671
